Source of measurements: patent US4757069A

- Target Of Assay: Angiotensin converting enzyme (rabbit lung) (Oryctolagus cuniculus)
- Construct: Angiotensin converting enzyme (rabbit lung); from tissue; host or cells: rabbit lung
- Sequence (P12822 34-1310): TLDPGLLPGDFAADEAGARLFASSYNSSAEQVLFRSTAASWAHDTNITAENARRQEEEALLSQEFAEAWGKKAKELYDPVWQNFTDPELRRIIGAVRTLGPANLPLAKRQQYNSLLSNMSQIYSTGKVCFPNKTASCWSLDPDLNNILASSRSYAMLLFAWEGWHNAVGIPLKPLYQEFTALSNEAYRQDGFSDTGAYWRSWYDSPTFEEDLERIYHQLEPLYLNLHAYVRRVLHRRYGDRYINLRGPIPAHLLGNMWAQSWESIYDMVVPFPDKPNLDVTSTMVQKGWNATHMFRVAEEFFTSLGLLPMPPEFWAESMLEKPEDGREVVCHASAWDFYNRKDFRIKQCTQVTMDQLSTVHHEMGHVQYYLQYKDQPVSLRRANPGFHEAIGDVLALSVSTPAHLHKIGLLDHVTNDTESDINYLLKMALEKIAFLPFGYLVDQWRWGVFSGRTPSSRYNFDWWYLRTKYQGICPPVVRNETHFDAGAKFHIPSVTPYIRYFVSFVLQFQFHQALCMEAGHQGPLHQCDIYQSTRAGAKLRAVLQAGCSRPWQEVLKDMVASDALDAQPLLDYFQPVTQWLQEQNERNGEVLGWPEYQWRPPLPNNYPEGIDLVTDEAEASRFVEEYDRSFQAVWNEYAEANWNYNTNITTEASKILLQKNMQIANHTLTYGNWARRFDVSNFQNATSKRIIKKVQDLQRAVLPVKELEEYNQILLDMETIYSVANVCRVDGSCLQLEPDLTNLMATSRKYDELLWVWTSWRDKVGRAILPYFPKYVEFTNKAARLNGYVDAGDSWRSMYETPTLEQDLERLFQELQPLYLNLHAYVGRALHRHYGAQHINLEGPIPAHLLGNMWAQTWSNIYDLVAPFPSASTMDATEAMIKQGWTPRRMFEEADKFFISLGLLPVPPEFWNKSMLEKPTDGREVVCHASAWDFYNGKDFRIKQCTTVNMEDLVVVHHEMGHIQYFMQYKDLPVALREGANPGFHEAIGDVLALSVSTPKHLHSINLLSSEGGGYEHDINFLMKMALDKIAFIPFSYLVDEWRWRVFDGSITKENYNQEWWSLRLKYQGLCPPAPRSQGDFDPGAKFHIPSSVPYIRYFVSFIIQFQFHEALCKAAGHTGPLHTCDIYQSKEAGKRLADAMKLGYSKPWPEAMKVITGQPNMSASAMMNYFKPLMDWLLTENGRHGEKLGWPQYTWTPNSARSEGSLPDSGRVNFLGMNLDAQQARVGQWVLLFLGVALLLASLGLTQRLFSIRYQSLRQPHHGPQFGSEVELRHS
- Experimental Protocol: Inhibition of angiotensin-converting enzyme in vitro (conversion of angiotensin I into angiotensin II, fluorescence)
- Type: biochemical
- Conditions: rabbit lung ACE; 90 min preincubation at 37° C., pH 7.5; angiotensin I 250 μmol; 30 min reaction; read-out: IC50 (concentration of test substance which reduces by 50% the conversion of angiotensin I into angiotensin II)
Structures can show the parent of a compound that is named as a salt.
Endpoint Name: pIC50
In textbook form, pIC50 equals minus log to base ten of the concentration in mol/L.

According to the records, this molecule N=C(N)Nc1ccc(CC[C@H](N[C@H]2CCCN3CCC[C@@H](C(=O)O)N3C2=O)C(=O)O)cc1 [Example 1, dihydrobromide] displays pIC50 of 9.22
